Here's what we have: pIC50 numbers for Angiopoietin-1 receptor (Homo sapiens, UniProt Q02763).
Recall that pIC50 is obtained by taking minus log10 of the concentration measured in molar.

Example molecules with recorded pIC50:
{"columns": ["structure-string", "pIC50"],
 "data": [
  ["Cc1cccc(-c2cn(Cc3ccc(-c4cnn(C)c4)cc3)nn2)c1", 7.29],
  ["Cc1cccc(-c2cn(Cc3ccc(-c4cncnc4)cc3)nn2)c1", 7.86],
  ["Cc1ccc(-c2cn(Cc3ccc(-c4cncnc4)cc3)nn2)cc1", 7.59]
]}

Kindly note: Angiopoietin-1 receptor (Homo sapiens, UniProt Q02763), Cn1cc(-c2ccc(Cn3cc(-c4cccc(C(F)(F)F)c4)nn3)cc2)cn1 , pIC50 value reported: 8.75

Form field, pIC50 with Angiopoietin-1 receptor (Homo sapiens, UniProt Q02763), item Cc1ccc(-c2cn(Cc3ccc(-c4cnn(C)c4)cc3)nn2)cc1 : 7.11

Test item Cn1cc(-c2ccc(Cn3cc(-c4ccc(C(F)(F)F)cc4)nn3)cc2)cn1 ; Angiopoietin-1 receptor (Homo sapiens, UniProt Q02763); reported pIC50 was 8.04
